System: ragweed
methodDescription: Test A postemergence
Assay type: in vivo, Ambrosia elatior
measurementConditions: 31 g ai/ha, 0 to 100 scale, 0 no effect, 100 complete control
recordedEndpoint: Plant response rating, Ragweed
Give the value as a plain number.

INPUT: Request the reported Plant response rating, Ragweed associated with COc1cnn(-c2c(F)cccc2Oc2ncc(Cl)cn2)c1 [Compound 121]
OUTPUT: 10

INPUT: // Plant response rating, Ragweed lookup, key: CC(C)Cc1cn(-c2c(F)cccc2Oc2ncc(Cl)cn2)nn1 [Compound 107]
OUTPUT: 30

INPUT: Name the recorded Plant response rating, Ragweed for N#Cc1cccc(Oc2ncc(Cl)cn2)c1-n1cnc(C(F)(F)F)c1 [Compound 252] .
OUTPUT: 20

INPUT: Suppose we examine the compound Fc1cccc(Oc2ncc(Cl)cn2)c1-n1cc(-c2ccsc2)nn1 [Compound 277] ; what Plant response rating, Ragweed value has been reported?
OUTPUT: 50

INPUT: Request the reported Plant response rating, Ragweed associated with CC(C)Oc1cnn(-c2c(Br)cccc2Oc2ncc(F)cn2)c1 [Compound 156]
OUTPUT: 0

====

Test system: barnyardgrass
methodDescription: Test A postemergence
Assay type: in vivo, Echinochloa crus-galli
measurementConditions: 500 g ai/ha, 0 to 100 scale where 0 is no effect and 100 is complete control
Hi there, I'd appreciate the recorded Plant response rating, Barnyardgrass for every entry that follows.
// print number alone

INPUT: Which Plant response rating, Barnyardgrass value is on record for Clc1cnc(Oc2cccc(Cl)c2-n2cc(Br)cn2)nc1 [Compound 219] ?
OUTPUT: 100

INPUT: Data request, read-out Plant response rating, Barnyardgrass, for O=Cc1cccc(Oc2ncc(Cl)cn2)c1-n1cc(C(F)(F)F)cn1 [Compound 171]
OUTPUT: 0

INPUT: Given Cc1cnc(Oc2cccc(C#N)c2-n2cc(I)cn2)nc1 [Compound 136] , state its recorded Plant response rating, Barnyardgrass.
OUTPUT: 90

INPUT: Returns the measured Plant response rating, Barnyardgrass for the input compound. Input: N#Cc1cnc(Oc2cccc(C(F)F)c2-n2cc(Br)cn2)nc1 [Compound 175]
OUTPUT: 0

INPUT: Can you look up the measured Plant response rating, Barnyardgrass of Clc1cnc(Oc2cccc(-c3ccccc3)c2-n2cc(Br)cn2)nc1 [Compound 195] for me?
OUTPUT: 20

INPUT: Please look up its Plant response rating, Barnyardgrass: O=Cc1cccc(Oc2ncc(Cl)cn2)c1-n1cc(Cl)cn1 [Compound 205]
OUTPUT: 0

INPUT: Param item = CCCc1cnc(Oc2cccc(C#N)c2-n2cc(Br)cn2)nc1 [Compound 131] ; retrieve measured Plant response rating, Barnyardgrass.
OUTPUT: 0

INPUT: Tell me the measured Plant response rating, Barnyardgrass of N#Cc1cnc(Oc2cccc(C#N)c2-n2cc(Br)cn2)nc1 [Compound 214] , please.
OUTPUT: 0

INPUT: Quick one: Plant response rating, Barnyardgrass of COc1cnn(-c2c(C#N)cccc2Oc2ncc(Cl)cn2)c1 [Compound 137] ?
OUTPUT: 100

====

Test system: Heteranthera limosa
methodDescription: Test B flooded paddy test
Assay type: in vivo
measurementConditions: Heteranthera limosa, Flood, 250 g ai/ha; 0 to 100 scale where 0 is no effect and 100 is complete control; read-out: Plant response rating, Ducksalad
Method: Plant species in the flooded paddy test selected from rice (Oryza sativa), sedge, umbrella (small-flower umbrella sedge, Cyperus difformis), (Heteranthera limosa), and barnyardgrass (Echinochloa crus-galli) were grown to the 2-leaf stage for testing. […] Treated plants and controls were maintained in a greenhouse for 13 to 15 days, after which time all species were compared to controls and visually evaluated. […]
recordedEndpoint: pest or weed control at 250 g/ha (%)
Field format: number, assumed %, no unit text.

INPUT: Name the recorded pest or weed control at 250 g/ha for `FC(F)c1cccc(Oc2ncc(Cl)cn2)c1-n1cc(Br)cn1` .
OUTPUT: 98

INPUT: Sample `N#Cc1cccc(Oc2ncc(Cl)cn2)c1-n1cnc(C(F)(F)F)c1` — what was its pest or weed control at 250 g/ha?
OUTPUT: 75

INPUT: I would be grateful if you could share the reported pest or weed control at 250 g/ha for `FC(F)(F)Sc1cnn(-c2ccccc2Oc2ncc(Cl)cn2)c1` .
OUTPUT: 0

INPUT: If you can, please state the reported pest or weed control at 250 g/ha value of `FC(F)(F)COc1cnn(-c2ccccc2Oc2ncc(Cl)cn2)c1` .
OUTPUT: 90

INPUT: Sample `FC(F)(F)c1cnn(-c2c(Oc3ncc(Cl)cn3)cccc2-c2nnco2)c1` — what was its pest or weed control at 250 g/ha?
OUTPUT: 0

INPUT: What value of measured pest or weed control at 250 g/ha is listed for `N#Cc1cccc(Oc2ncc(Br)cn2)c1-n1cc(C(F)(F)F)cn1` ?
OUTPUT: 80

This collection of values is drawn from patent US9695155B2.
